Biological target: AHR (Homo sapiens, UniProt P35869)
Sequence (P35869 11-848): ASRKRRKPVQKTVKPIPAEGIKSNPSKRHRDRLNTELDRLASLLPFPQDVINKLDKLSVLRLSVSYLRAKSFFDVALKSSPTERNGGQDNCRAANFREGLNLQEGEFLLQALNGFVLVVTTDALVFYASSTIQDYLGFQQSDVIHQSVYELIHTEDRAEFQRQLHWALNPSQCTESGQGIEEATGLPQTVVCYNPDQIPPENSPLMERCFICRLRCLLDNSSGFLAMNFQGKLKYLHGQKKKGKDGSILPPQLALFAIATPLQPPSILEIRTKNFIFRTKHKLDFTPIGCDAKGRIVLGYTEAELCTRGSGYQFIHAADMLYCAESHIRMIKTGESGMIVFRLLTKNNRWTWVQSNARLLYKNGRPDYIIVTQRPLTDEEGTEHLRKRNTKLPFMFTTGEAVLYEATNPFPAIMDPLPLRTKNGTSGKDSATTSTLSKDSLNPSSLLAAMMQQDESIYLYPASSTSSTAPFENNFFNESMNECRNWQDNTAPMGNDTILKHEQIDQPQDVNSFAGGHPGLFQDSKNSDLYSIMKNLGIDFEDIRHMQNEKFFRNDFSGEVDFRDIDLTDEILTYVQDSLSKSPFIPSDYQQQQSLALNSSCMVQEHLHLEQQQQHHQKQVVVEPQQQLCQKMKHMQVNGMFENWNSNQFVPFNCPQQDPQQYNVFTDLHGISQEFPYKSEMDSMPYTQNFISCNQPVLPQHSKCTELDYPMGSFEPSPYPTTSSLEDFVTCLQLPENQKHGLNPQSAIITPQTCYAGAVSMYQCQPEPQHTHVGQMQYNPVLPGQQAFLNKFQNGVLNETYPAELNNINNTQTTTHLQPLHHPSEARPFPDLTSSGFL
Experiment: In vitro assay 3: AHR-regulated CYP1A1 expression in human cell line (U937, qPCR, KA stimulation)
Type: cell-based
Conditions: U937 cells, 200 uM KA, 6 hours, CYP1A1 expression by qPCR; read-out: Assay 3: Hum CYP1A1 Antagonism IC50
Protocol: In Vitro Assay 3: AHR-Regulated CYP1A1 Expression in Human Cell Line To assess the AHR inhibitory activity of the substances described in this application, the ability thereof to antagonise ligand-induced AHR gene regulation in a dose-dependent manner was quantified. For this purpose, quantitative PCR analysis was used to determine expression of the AHR-regulated gene CYP1A1 in a human monocytic U937 cell line upon stimulation with 200 uM KA in the presence and absence of AHR inhibitor. […]
Listed next: entries and their corresponding IC50.
measured-endpoint: IC50 (nM)

compound	result-number
O=C(NC[C@H](O)C(F)(F)F)c1cc(-c2ccc(OC(F)(F)F)cc2)nn(-c2cccnc2)c1=O	7.29
C[C@@H](CO)NC(=O)c1cc(-c2ccc(C(F)(F)F)cc2)nn(-c2cccnc2)c1=O	5.72
C[C@H](CO)NC(=O)c1cc(-c2ccc(C(F)(F)F)cc2)nn(-c2cnn(C)c2)c1=O	36.2
C[C@@H](CO)NC(=O)c1cc(-c2ccc(OC(F)F)cc2)nn(-c2cnn(C)c2)c1=O	33.7
Cc1ccc(-c2cc(C(=O)NCC(O)C(F)(F)F)c(=O)n(-c3cnn(C)c3)n2)cc1 (stereo not shown) [Example 10]	10.2
Cn1cc(-n2nc(-c3ccc(C(F)(F)F)cc3)cc(C(=O)N[C@@H]3COC[C@@H]3O)c2=O)cn1 (single isomer, unassigned) [Example 231]	9.93
O=C(N[C@H]1CCC[C@@H]1O)c1cc(-c2ccc(C(F)(F)F)cc2)nn(-c2cccnc2)c1=O	1.69

###

target: AHR (Homo sapiens, UniProt P35869); assay: In vitro assay 1: antagonism in human cell line (transactivation assay, U87 cells prestimulated with kynurenic acid, DRE firefly luciferase reporter); assay type: cell-based; set-up: host or cells: U87 glioblastoma cells, stably transfected with DRE firefly luciferase and renilla reporter constructs; conditions: 150 uM kynurenic acid, 20 hours, read-out: Assay 1: AHR-luc Hum Antagonism IC50
pIC50: −log10 of the molar value.
measured-endpoint: pIC50

compound	measured-endpoint	result-number
O=C(NCC1(O)CCC1)c1cc(-c2ccc(Cl)cc2)nn(-c2cnsc2)c1=O	pIC50	9.13
O=C(NCC(O)C(F)F)c1cc(-c2ccc(C(F)(F)F)cc2)nn(-c2cccnc2)c1=O (single isomer, unassigned; (+)) [Example 247]	pIC50	7.86
Cn1cc(-n2nc(-c3ccc(OC(F)F)cc3)cc(C(=O)NC(C(C)(C)O)C(F)(F)F)c2=O)cn1 (single isomer, unassigned) [Example 306]	pIC50	8.88
O=C(N[C@H](CO)C(F)(F)F)c1cc(-c2ccc(C(F)(F)F)cc2)nn(-c2cnn(C(F)F)c2)c1=O	pIC50	8.68
Cn1cc(-n2nc(-c3ccc(OC(F)(F)F)cc3)cc(C(=O)N[C@@H]3COC[C@H]3O)c2=O)cn1 (single isomer, unassigned; enantiomer 1) [Example 64]	pIC50	7.09
C[C@@H](CO)NC(=O)c1cc(-c2ccc(Cl)cc2)nn(-c2cn[nH]c2)c1=O	pIC50	7.18
Cn1cc(-n2nc(-c3ccc(C(F)(F)F)cc3)cc(C(=O)NC[C@H](O)C(F)(F)F)c2=O)cn1	pIC50	8.58
